Parameter: ED50. Scope: all listed entries.
target: T1, human RAGE-Fc fusion protein (human, UniProt Q15109 23-344); experiment: competition ELISA on human RAGE-Fc; labelled competitor not named
T1 construct: also called hRAGE-Fc; huRAGE-Fc; not shown: Fc domain of human IgG
Reported Endpoint: ED50 (nM)

V2.3 (I48M) / v2.1 (antibody, V domains shown, XT-H2 construct expressed in COS cells; also called XT-H2 hVH V2.3 + hVL V2.1) VH: QVQLVQSGAEVKKPGASVKVSCKASGYTFTTYWMHWVRQRPGQGLYWMGYINPSTGYTEYNQKFKDRVTMTADTSISTAYMELSRLRSDDTAVYYCARWAGYTIDYWGQGTLVTVSS VL: DIVMTQTPLSLSVTPGQPASISCKSTKSLLNSDGFTYLDWYLQKPGQSPQLLIYLVSDRFSGVPDRFSGSGSGTDFTLKISRVEAEDVGVYYCFQSNSLPLTFGGGTKVEIK : 5
V2.0 (R40, Y46, I48, A71, K73) / v3.0 DPK24 grafted (antibody, V domains shown, XT-H2 construct expressed in COS cells; also called XT-H2 hVH V2.0 + hVL V3.0) VH: QVQLVQSGAEVKKPGASVKVSCKASGYTFTTYWMHWVRQRPGQGLYWIGYINPSTGYTEYNQKFKDRVTMTADTSISTAYMELSRLRSDDTAVYYCARWAGYTIDYWGQGTLVTVSS VL: DIVMTQSPDSLAVSLGERATINCKSTKSLLNSDGFTYLDWYQQKPGQPPKLLIYLVSDRFSGVPDRFSGSGSGTDFTLTISSLQAEDVAVYYCFQSNSLPLTFGGGTKVEIK : 8
